# testedOn: CDK12/CyclinK (Homo sapiens, UniProt Q9NYV4)
# Sequence (Q9NYV4 whole entry): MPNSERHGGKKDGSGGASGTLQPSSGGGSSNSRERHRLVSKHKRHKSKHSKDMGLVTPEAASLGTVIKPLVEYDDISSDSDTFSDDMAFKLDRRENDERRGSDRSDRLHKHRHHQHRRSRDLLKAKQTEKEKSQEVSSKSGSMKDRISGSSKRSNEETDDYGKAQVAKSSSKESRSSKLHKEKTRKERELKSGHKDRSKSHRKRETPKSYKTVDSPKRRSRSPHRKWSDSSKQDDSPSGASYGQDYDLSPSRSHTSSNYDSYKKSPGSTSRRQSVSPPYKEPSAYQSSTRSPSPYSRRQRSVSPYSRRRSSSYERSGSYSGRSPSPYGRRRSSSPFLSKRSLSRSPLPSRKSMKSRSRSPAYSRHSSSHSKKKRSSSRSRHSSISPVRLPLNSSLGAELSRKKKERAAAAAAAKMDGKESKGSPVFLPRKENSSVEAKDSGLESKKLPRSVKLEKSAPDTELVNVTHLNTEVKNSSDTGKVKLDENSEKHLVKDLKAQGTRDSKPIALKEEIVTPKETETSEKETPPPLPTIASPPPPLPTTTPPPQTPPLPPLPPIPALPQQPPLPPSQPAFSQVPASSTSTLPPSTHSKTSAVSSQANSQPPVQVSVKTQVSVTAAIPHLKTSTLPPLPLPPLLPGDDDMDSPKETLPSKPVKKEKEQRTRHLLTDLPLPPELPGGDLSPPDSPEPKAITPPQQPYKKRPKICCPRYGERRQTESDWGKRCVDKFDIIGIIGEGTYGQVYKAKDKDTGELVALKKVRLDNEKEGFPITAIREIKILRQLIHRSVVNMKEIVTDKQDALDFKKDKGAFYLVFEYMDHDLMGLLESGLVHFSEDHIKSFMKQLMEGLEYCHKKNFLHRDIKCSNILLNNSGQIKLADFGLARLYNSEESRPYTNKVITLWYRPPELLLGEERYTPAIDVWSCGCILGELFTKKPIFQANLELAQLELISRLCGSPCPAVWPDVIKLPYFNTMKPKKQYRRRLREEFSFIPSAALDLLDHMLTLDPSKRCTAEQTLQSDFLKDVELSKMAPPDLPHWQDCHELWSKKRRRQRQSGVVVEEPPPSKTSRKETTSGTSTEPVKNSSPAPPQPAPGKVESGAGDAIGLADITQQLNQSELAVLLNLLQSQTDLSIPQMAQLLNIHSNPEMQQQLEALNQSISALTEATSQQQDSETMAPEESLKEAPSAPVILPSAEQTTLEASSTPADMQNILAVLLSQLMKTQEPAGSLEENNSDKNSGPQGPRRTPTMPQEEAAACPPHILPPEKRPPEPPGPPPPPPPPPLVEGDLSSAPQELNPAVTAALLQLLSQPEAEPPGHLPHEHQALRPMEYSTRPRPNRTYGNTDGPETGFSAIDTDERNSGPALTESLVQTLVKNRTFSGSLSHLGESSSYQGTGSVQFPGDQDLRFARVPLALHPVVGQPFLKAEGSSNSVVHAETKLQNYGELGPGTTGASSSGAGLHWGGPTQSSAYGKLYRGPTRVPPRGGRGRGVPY
# Sequence (O75909 whole entry partner): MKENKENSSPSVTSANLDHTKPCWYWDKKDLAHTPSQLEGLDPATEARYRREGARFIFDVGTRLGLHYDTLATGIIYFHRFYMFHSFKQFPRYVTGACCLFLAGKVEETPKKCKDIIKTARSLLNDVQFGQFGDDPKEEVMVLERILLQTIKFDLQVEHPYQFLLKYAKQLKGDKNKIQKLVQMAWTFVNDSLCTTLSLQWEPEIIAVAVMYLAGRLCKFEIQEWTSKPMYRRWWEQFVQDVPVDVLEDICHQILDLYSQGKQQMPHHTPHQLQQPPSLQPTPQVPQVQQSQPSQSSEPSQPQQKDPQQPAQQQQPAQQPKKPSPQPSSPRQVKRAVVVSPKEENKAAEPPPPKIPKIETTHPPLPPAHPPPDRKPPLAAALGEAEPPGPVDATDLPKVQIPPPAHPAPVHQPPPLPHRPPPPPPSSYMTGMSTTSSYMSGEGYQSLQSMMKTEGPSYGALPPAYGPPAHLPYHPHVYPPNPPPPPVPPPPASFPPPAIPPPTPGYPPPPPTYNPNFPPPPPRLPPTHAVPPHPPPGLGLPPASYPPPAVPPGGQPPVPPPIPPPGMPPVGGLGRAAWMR
# assayText: In vitro CDK12/cyclinK kinase assay
# Assay type: biochemical
# Set-up: purchased Reaction Biology Corp. (CRO that ran the assay)
# conditionSet: Tables 1-4; read-out: CDK12/CyclinK (IC50/μM)
# Protocol: In vitro CDK12/cyclinK assays for all compounds and in vitro kinome-wide inhibition profiling of 30d at 10 μM were performed by a CRO company (Reaction Biology Corp., San Diego, CA, USA).
Label rule met when IC50 < 0.3 µM; otherwise rule not met.

INPUT: Find out if reported IC50 for CC(C)n1cnc2c(NCc3ccc(-c4cccnc4)nc3)nc(-c3ccnc(NCCCO)c3)nc21 [Compound 22d] is less than 0.3 µM
OUTPUT: rule met

INPUT: Regarding CC(C)n1cnc2c(NCc3ccc(-c4cccnc4)cn3)nc(-c3cccnc3)nc21 [Compound 17b] , kindly confirm whether its IC50 is beneath 0.3 µM.
OUTPUT: rule not met

INPUT: Threshold test, IC50 < 0.3 µM: CCn1cnc2c(NCc3ccc(-c4cccnc4)nc3)nc(-c3cccnc3)nc21 [Compound 28a]
OUTPUT: rule met

INPUT: Determine if CC(C)n1cnc2c(NCc3ccc(-c4cccnc4)nc3)nc(-c3cccnc3)nc21 [Compound 17f] shows IC50 strictly lower than 0.3 µM.
OUTPUT: rule met
